# Experiment Summary: Kinetic solubility of compound in FeSSIF buffer incubated for 2 hrs by LC-MS/MS analysis
# Type: physicochemical
# Condition Description: read-out: Kinetic_solubility
Measured Property: solubility kinetic at 2 h (µM)
The reply should be a number in µM, with the unit left off.

# count of solved cases: 3
compound="Cl.O=C1CCC(Nc2cccc(N3CCN(CC4CCN(CC(=O)N5CCC(NC(=O)c6n[nH]cc6NC(=O)c6c(Cl)cccc6Cl)CC5)CC4)CC3)c2)C(=O)N1 (centres undefined)" units_label=µM endpoint_value=290
compound="O=C1CCC(N2C(=O)c3ccc(N4CCN(CC5CCN(CC(=O)N6CCC(NC(=O)c7n[nH]cc7NC(=O)c7c(Cl)cccc7Cl)CC6)CC5)CC4)cc3C2=O)C(=O)N1 (centres undefined)" units_label=µM endpoint_value=9.08
compound=O=C(O)Cc1ccccc1Nc1c(Cl)cccc1Cl units_label=µM endpoint_value=316

Exercise: Using the record for O=C1CCC(Nc2cccc(N3CCN(CC4CCN(CC(=O)N5CCC(NC(=O)c6n[nH]cc6NC(=O)c6c(Cl)cccc6Cl)CC5)CC4)CC3)c2)C(=O)N1 (centres undefined) , report its solubility kinetic at 2 h.
Key: 234
